All figures here come from paper PMC8130932.

# MEASURED TARGET: T1, SARS-CoV-2 RBD (amino acids 340-538) on MDCK-SIAT1 cells (SARS-CoV-2 (so in the source))
# T1 construct: also called MDCK-RBD; source: MDCK-SIAT1, stably transduced (lentiviral vector), on the cell surface
# RUN DESCRIPTION: flow cytometry on cells
# CONDITION NOTES: one partner purified
MEASUREMENT LABEL: binding result

- BINDER: "EZ 7A (antibody, V domains shown, source: HEK293T, transfected; culture supernatant or purified) VH: EVQLVESGAEVKKPGESLKISCKGSGYSFTSYWIGWVRQMPGKGLEWMGIIYPGDSDTRYSPSFQGQVTISADKSISTAYLQWSSLKASDTAMYYCARGWVYRGFPYYGMDVWGQGTMVTVSS VL: QSALTQPRSVSGSPGQSVTISCTGTSSDVGGYNYVSWYQQHPGKAPKLMIYDVSKRPSGVPDRFSGSKSGNTASLTISGLQAEDEADYYCCSYAGSYTLVFGGGTKLTVL"
  binding result: "binds"
- BINDER: "FJ 4E (antibody, V domains shown, source: HEK293T, transfected; culture supernatant or purified) VH: QVQLVESGPGLVKPSETLSLTCSVSGGSISSGTYYWSWIRQQPGKGLEWIGYIYNTGRPYYNPFLKSRITISVDSSKNQFSLKLTSVTAADTAVYYCARDEYDSSDSGIQGHWFDPWGQGTLVTVSS VL: AIRMTQSPSSLSASVGDRVTITCRTSQNINSFLNWYQQKPGKGPNLLIYGAFTLQSGVPSRFSGSGSGTDFTLTISSLQPEDFATYFCQQSYSTPWTFGQGTKVEIK"
  binding result: "no binding"
- BINDER: "FN 12A (antibody, V domains shown, source: HEK293T, transfected; culture supernatant or purified) VH: QVQLVQSGAEVKKPGSSVKVSCKASGGTFSSYAISWVRQAPGQGLEWMGRIIPILGIANYAQKFQGRVTITADKSTSTAYMELSSLRSEDTAVYYCARSGCSSTSCPSNLYYYYYGMDVWGQGTTVTVSS VL: QSVLTQPPSVSAAPGQKVTISCSGSSSNIGNNYVSWYQQLPGTAPKLLIYDNNKRPSGIPDRFSGSKSGTSATLGITGLQTGDEADYYCGTWDSSLSALVFGGGTKLTVL"
  binding result: "binds"
- BINDER: "FG 12C (antibody, V domains shown, source: HEK293T, transfected; culture supernatant or purified) VH: EVQLVESGGGLVQPGRSLRLSCAASGFTFDDYAMHWVRQAPGKGLEWVSGISWNSGSIGYADSVKGRFTISRDNAKNSLYLQMNSLRAEDTALYYCAKDMRVHDYGDYYFDYWGQGTLVTVSS VL: SYELTQPPSVSVAPGKTARITCGGNNIGSKSVHWYQQKPGQAPVLVIYYDSDRPSGIPERFSGSNSGNTATLTISRVEAGDEADYYCQVWDSSSDHPVFGGGTKLTVL"
  binding result: "no binding"
- BINDER: "FD 1D (antibody, V domains shown, source: HEK293T, transfected; culture supernatant or purified) VH: EVQLVESGGGVVQPGRSLRLSCAASGFTFSSYAMHWVRQAPGKGLEWVAVISYDGSNKYYADSVKGRFTISRDNSKNTLYLQMNSLRAEDTAVYYCARAGSGSYLNWFDPWGQGTLVTVSS VL: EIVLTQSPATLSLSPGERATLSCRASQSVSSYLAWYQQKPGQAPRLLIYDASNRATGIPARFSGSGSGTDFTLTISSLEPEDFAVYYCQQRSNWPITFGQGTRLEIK"
  binding result: "no binding"

Entry FI 1C (antibody, V domains shown, source: HEK293T, transfected; culture supernatant or purified) VH: EVQLVESGGGLVKPGGSLRLSCAASGFTFSDYYMSWIRQAPGKGLEWVSYISSSGSTIYYADSVKGRFTISRDNAKNSLYLQMNSLRAEDTAVYYCARRSNRFLIAFDIWGQGTMVTVSS VL: QSALTQPASVSGSPGQTITISCTGTSSDVGGYNYVSWYQQHPGKAPKLMIYEVSNRPSGVSNRFSGSKSGNTASLTISGLQAEDEADYYCSSYTSSSTLVVFGGGTKLTVP — recorded binding result = binds
